- Target under test: M4 muscarinic receptor (Homo sapiens)
- Construct: expressed in transfected cells; host or cells: CHO cells (M4-CHO, under puromycin, zeocin and blasticidin selection)
- Sequence (P08173 whole entry): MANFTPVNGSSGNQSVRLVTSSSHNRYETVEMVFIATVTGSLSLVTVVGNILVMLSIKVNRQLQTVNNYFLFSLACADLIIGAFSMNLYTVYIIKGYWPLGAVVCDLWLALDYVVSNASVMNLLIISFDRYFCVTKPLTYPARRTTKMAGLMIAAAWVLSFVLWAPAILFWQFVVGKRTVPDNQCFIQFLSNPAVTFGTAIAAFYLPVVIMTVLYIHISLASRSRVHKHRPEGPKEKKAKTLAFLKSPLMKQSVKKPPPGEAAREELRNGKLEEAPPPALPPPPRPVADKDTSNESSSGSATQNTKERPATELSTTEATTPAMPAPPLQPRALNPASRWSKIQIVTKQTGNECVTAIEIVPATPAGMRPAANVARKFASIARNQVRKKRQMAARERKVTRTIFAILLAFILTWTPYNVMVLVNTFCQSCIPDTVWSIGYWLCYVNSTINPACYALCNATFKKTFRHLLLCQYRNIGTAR
- Assay: Functional mobilization of intracellular calcium (FLIPR, Fluo-3), M4-CHO cells
- Format: cell-based
- Run parameters: compound nos. 1-454; 100% efficacy is the maximum response obtained with the Carbachol control; read-out: M4 Efficacy
For each record, write down the corresponding Emax.

Give recorded Emax. CC(=O)N[C@H]1CC2(CCN([C@@H]3C[C@@H]4CC[C@@H]3C4)CC2)c2ccccc21
> 70%

Give me measured Emax, please, for this molecule: CC(=O)N1CC2(CCN(C3CCCN(C(=O)OCCF)CC3)CC2)c2cc(F)ccc21 (stereo not shown)
> 70%

Give the value of Emax reported for the following: Clc1ccc2c(c1)C1(CCN(C3CCCCC3)CC1)CN2
> 70%

Report Emax, nothing else, for this molecule: CC(=O)NC1CC2(CCN(C3CCCCC3)CC2)c2ccccc21 (stereo not shown)
< 55%

----------
- Target under test: M1 muscarinic receptor (Homo sapiens, UniProt P11229)
- Construct: expressed in transfected cells; host or cells: CHO cells (M1-CHO, under zeocin and G418 selection)
- Sequence (P11229 whole entry): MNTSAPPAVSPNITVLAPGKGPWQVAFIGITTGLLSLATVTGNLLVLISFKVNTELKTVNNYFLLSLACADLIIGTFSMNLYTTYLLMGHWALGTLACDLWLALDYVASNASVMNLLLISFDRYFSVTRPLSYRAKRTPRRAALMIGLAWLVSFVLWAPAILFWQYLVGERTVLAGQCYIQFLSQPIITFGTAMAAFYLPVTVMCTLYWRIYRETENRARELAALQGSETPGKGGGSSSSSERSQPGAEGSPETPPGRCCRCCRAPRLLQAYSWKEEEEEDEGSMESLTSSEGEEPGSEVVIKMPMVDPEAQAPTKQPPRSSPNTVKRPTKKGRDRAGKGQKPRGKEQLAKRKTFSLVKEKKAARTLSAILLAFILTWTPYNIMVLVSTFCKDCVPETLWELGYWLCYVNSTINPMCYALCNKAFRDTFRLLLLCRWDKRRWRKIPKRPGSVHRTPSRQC
- Assay: Functional mobilization of intracellular calcium (FLIPR, Fluo-3), M1-CHO cells
- Assay type: cell-based
- Run parameters: compound nos. 455-509; 100% efficacy is the maximum response obtained with the Carbachol control; read-out: M1 Efficacy
Value kind: Emax

Please look at this compound and report its Emax: Cc1cncc(N2CCC(N3CCC4(CCN(C(=O)N(C)C)c5ccccc54)CC3)CC2)n1
> 100%

Specify measured Emax for CCc1nsc(N2C3CCC2CC(N2CCC4(CCN(C(=O)N(C)C)c5ccccc54)CC2)C3)n1 (centres unmarked) .
> 100%

Tell me Emax reported for Cc1nsc(N2C3CCC2CC(N2CCC4(CC2)CN(C(=O)N(C)C)c2ccccc24)C3)n1 (centres unmarked)
> 100%

Fill in reported Emax for this entry: CN(C)C(=O)N1CC2(CCN(C3CCN(c4nncs4)CC3)CC2)c2ccccc21
25 to 100%

State, in one line, measured Emax of CCc1nsc(N2CCC(N3CCC4(CCN(C(=O)N(C)C)c5ccccc54)CC3)CC2)n1
> 100%

Output measured Emax for this item: CC(=O)N1CCC2(CCN(C3CCN(c4nc(C)ns4)CC3)CC2)c2ccccc21
> 100%

Provide measured Emax value, entry: CN(C)C(=O)N1CCC2(CCN(C3CC4CCC(C3)N4c3cnccn3)CC2)c2ccccc21 (centres unmarked)
> 100%

Let me know recorded Emax for CN(C)C(=O)N1CC2(CCN(C3CCN(c4cncc(-c5ccccc5O)n4)CC3)CC2)c2ccccc21 , thanks.
< 25%

----------
Kindly supply the reported Emax values for the records listed here.
- Target under test: M1 muscarinic receptor (Homo sapiens, UniProt P11229)
- Construct: expressed in transfected cells; host or cells: CHO cells (M1-CHO, under zeocin and G418 selection)
- Assay: Functional mobilization of intracellular calcium (FLIPR, Fluo-3), M1-CHO cells
- Format: cell-based
- Run parameters: compound nos. 1-454; 100% efficacy is the maximum response obtained with the Carbachol control; read-out: M1 Efficacy

Input C/C=C\c1ccc2c(c1)C1(CCN(C3CCN(C(=O)OCC)CC3)CC1)CN2C(C)=O , output reported Emax.
< 65%

Give the value of Emax reported for the following: CCOC(=O)N1CCC(N2CCC3(CC2)CN(C(=O)C2CCCC2)c2ccc(F)cc23)CC1
< 65%

Tell me its Emax given CC=CCOC(=O)N1C2CCC1CC(N1CCC3(CC1)CN(C(=O)N(C)C)c1ccc(F)cc13)C2 (stereo not shown) as the entry.
65 to 85%

For the compound c1ccc2c(c1)NCC21CCN(C2CCCCC2)CC1 , give its measured Emax value.
> 85%
